# Tested on: HOP-92 NSCLC
# assayProcedure: NCI-60 one-dose screen, 48 h (100 = growth as untreated, 0 = no growth, -100 = all killed)
# cond: 10 µM unless noted
This is part of a sample that, as a whole, favours compounds with a hit. Of some 83,000 tested, about 20% had one in any assay. Activity calls are given as the source filed them. Rule for the calls: active = growth percent below 10; inactive = the rest.
Reported growth is given for each of the following compounds.

Take a look at these entries with their results.
compound="NC[C@@H]1O[C@H](O[C@@H]2[C@@H](CO)OC(O[C@@H]3[C@@H](O)[C@H](N)C[C@H](N)[C@H]3OC3O[C@H](CN)[C@@H](O)[C@H](O)[C@H]3N)[C@@H]2O)[C@H](N)[C@@H](O)[C@@H]1O (some centres undefined)" recordedresult="125% (inactive)"
compound="CC1(C)C2CC1C1(/C=N/NC(N)=S)C(C2)C(C#N)(C#N)C1(C#N)C#N (centres undefined)" recordedresult="55.5% (inactive)"
compound="CCc1cccc2c3c(sc12)C(c1ccc(F)cc1)C(C#N)=C(N)O3 (centres undefined)" recordedresult="78.9% (inactive)"

Exercise: Bench note: what growth did Cc1c(C(=O)/C=C/Nc2c(Cl)cc(S(N)(=O)=O)cc2Cl)sc2nc3ccccc3n12 show?
Solution: 111% (inactive)

Exercise: Report growth for Cc1ccc(NC2=C(Cl)C(=O)c3nc(C)ccc3C2=O)cc1 please.
Solution: -71% (active)

Exercise: Recorded growth of COc1cc(C(=O)c2cc(C)c3[nH]c4ccc(C)cc4c3c2C)cc(OC)c1OC , please.
Solution: 29.2% (inactive)

Exercise: Bench note: what growth did CC(=O)Oc1ccccc1C(=O)N=C1[Se]CCCN1C(=O)c1ccccc1OC(C)=O show?
Solution: -10.3% (active)

Exercise: Which growth value is on record for Cc1cccc2c3c(sc12)C(c1ccc(Cl)cc1)C(C#N)=C(N)O3 (centres undefined) ?
Solution: 89.7% (inactive)

Exercise: // returns reported growth for input NCCCNc1nc2ccccc2c2c(=O)c3cc(F)cc(Cl)c3sc12
Solution: 70.4% (inactive)

----------
# System: M14 melanoma
# assayProcedure: NCI-60 one-dose screen, 48 h (100 = growth as untreated, 0 = no growth, -100 = all killed)
# cond: 10 µM unless noted
This is part of a sample that, as a whole, favours compounds with a hit. Of some 83,000 tested, about 20% had one in any assay. The source made the active and inactive calls. Rule for the calls: active = growth percent below 10; inactive = the rest.
Property: growth; scope: individual compounds

Below, each entry is followed by its recorded growth result.
compound=Cc1nc2ccccc2c(/C=C/c2ccc(Cl)cc2)c1C(=O)/C=C/c1ccc(C(F)(F)F)cc1 testedsystem="M14 melanoma" recordedresult="-38.6% (active)"
compound=O=C(N/N=C/c1c(Cl)cccc1Cl)c1ccc(C(F)(F)F)nc1Nc1cccc(C(F)(F)F)c1 testedsystem="M14 melanoma" recordedresult="23.6% (inactive)"
compound=Oc1ccc(Cl)cc1Cc1cc(Cl)cc(Cl)c1O testedsystem="M14 melanoma" recordedresult="65.9% (inactive)"
compound="CC([C@H]1CCC2C3CCC4C[C@@H](NC=O)CC[C@]4(C)C3CC[C@@]21C)N(C)C (some centres undefined)" testedsystem="M14 melanoma" recordedresult="-48.8% (active)"
compound=Cc1ccc(/C=C(\C#N)n2nc3cccc(F)c3n2)cc1 testedsystem="M14 melanoma" recordedresult="98.2% (inactive)"
compound="COc1ccc(C(Cc2ccccc2)NCCN2CCOCC2)cc1 (centres undefined)" testedsystem="M14 melanoma" recordedresult="90.6% (inactive)"
compound=CN(C)CCCNc1nc2ccccc2c2c(=O)c3cc(F)ccc3sc12 testedsystem="M14 melanoma" recordedresult="-64.1% (active)"
compound=COc1ccc(OC)c(/C=C/c2nnc(Nc3ccccc3)o2)c1 testedsystem="M14 melanoma" recordedresult="110% (inactive)"

Exercise: // fetch M14 melanoma growth for COc1cc(C)c(Cc2cnc(N)nc2N)cc1OC
Solution: 105% (inactive)

FYI, the data here is from PubChem BioAssay (NCI).
